molecular target: AbCGT (Aloe vera); assay: Glycosyltransferase activity assay, purified AbCGT (wild type) with aglycon acceptors and UDP-Glc; assay type: biochemical, Aloe barbadensis; conditions: reaction-3
Sequence (A0A7G9P699 entry or part of it): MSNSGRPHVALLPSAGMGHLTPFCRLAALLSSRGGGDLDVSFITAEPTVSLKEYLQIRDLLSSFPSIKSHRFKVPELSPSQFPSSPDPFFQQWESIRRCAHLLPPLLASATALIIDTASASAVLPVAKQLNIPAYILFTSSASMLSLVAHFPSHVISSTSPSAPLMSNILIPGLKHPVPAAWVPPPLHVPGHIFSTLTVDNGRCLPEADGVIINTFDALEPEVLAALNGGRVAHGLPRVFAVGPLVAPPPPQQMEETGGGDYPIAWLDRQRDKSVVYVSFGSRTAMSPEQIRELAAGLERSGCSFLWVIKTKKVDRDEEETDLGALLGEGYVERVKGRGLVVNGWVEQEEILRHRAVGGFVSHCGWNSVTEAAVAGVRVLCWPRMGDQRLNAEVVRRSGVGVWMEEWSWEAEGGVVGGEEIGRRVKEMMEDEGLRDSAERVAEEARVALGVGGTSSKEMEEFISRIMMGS
QUANTITY KIND: WT/yield of O-glycoside(%)

GET /value?item= CC(=O)c1c(O)cc(C)cc1O &field=WT/yield of O-glycoside(%) returns 81.4%

Summary for this compound, O=C1CC(O)(c2ccc(O)cc2)Oc2cc(O)cc(O)c21 (stereo not drawn) [Compound 23, 2-hydroxynaringenin] : WT/yield of O-glycoside(%) is 17.8%

Kindly note the recorded WT/yield of O-glycoside(%) for CC(=O)c1cc(O)cc(O)c1 [Compound 4, 3,5-dihydroxyacetophenone] , which is 32.9%

Record CC(=O)c1cccc(O)c1 . Reported WT/yield of O-glycoside(%): 73%

Lab note: Oc1cc(O)cc(OCCCCCCc2ccccc2)c1 gave WT/yield of O-glycoside(%) of 34.6%

Given item CC(=O)c1ccc(O)cc1 , the value recorded as its WT/yield of O-glycoside(%) is 71%
